biological target: acetylcholine receptor; experiment: SPR, receptor immobilized, peptide 10 uM
Kindly supply the reported log10(Binding affinity (RU)) values for the records listed here.
Scale type: logarithmic (base 10). Underlying Binding affinity (RU) unit: RU.

## Task // log10(Binding affinity (RU)) lookup, key: KETVRR [6mer-2-878]
## Result 1.38

## Task Any idea what log10(Binding affinity (RU)) was measured for KCMVRR [6mer-2-885] ?
## Result 1.23

## Task # get_value(readout='log10(Binding affinity (RU))', item= KRQLRK [6mer-1-185] )
## Result 2.18

## Task Reported log10(Binding affinity (RU)), binder KTHFRK [6mer-2-872] : ____
## Result 1.45

## Task Can you look up the measured log10(Binding affinity (RU)) of RYMMR [5mer-751] for me?
## Result 1.30

## Task Name the reported log10(Binding affinity (RU)) value associated with the binder KAWVK [5mer-752]
## Result 1.41

## Task Quick check: log10(Binding affinity (RU)) of RDPKKK [6mer-2-844] ?
## Result 1.34

## Task What value of log10(Binding affinity (RU)) has been recorded for this entry: RRWYSK [6mer-1-166]
## Result 2.17

## Task I'd like to know its log10(Binding affinity (RU)). The binder in question is KRSQYR [6mer-1-179]
## Result 2.17

## Task Fill in the blank: the reported log10(Binding affinity (RU)) of KRGVLR [6mer-1-143] is ____.
## Result 2.16

## Task Value lookup for log10(Binding affinity (RU)); key = RTHHKK [6mer-2-880]
## Result 1.08

## Task What value of log10(Binding affinity (RU)) has been recorded for this entry: RACEK [5mer-784]
## Result 1.32

## Task log10(Binding affinity (RU)) lookup needed for KNWDR [5mer-755] , thanks.
## Result 1.18

## Task Query: log10(Binding affinity (RU)); subject: KRQVQR [6mer-1-140]
## Result 2.17

Cited source: patent US20250011363A1
